// provenance: patent US6602873B2

System: microvessel formation in rat aortic rings
TEST DETAILS: rat aortic ring model of angiogenesis (inhibition of microvessel formation)
Type: cell-based
MEASUREMENT PARAMETERS: microvessel area after eight days in culture vs vehicle-treated control rings
PARAMETER MEASURED: pIC50
Scale: negative log10 of molar concentration, which is what pIC50 denotes.

// solved cases for pIC50 follow
>>> assay_result("CN(C)c1nsc(-c2ccc(NCCCCOc3cccc(C(F)(F)F)c3)nn2)n1 [Compound 67]")
7.49
>>> assay_result("Cc1ccc(C(C)C)c(OCCCCN(C)c2ccc(-c3nc(C)ns3)nn2)c1 [Compound 62]")
8.26
>>> assay_result("Cc1nsc(-c2ccc(NCCCCOc3ccc(Cl)c(Cl)c3)nn2)n1 [Compound 17]")
7.89

IN: So what's the measured pIC50 for this one? Cc1nsc(-c2ccc(N(C)CCCCCc3ccc(F)cc3)nn2)n1 [Compound 76]
OUT: 8.94
